From: patent US9862730B2

Biological target: PAR4 (Homo sapiens (Human), UniProt Q96RI0)
Sequence (Q96RI0 18-385): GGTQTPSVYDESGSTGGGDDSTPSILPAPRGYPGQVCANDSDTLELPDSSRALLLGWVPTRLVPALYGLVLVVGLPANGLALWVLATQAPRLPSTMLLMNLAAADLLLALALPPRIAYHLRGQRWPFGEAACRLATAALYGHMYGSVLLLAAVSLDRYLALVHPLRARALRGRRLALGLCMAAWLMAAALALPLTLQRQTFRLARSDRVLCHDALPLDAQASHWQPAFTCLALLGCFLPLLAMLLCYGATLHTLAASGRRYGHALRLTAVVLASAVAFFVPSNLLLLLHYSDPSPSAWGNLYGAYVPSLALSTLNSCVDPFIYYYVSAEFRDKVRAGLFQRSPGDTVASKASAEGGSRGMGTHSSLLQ
Experiment: FLIPR assay in PAR4-expressing HEK293 cells (PAR4 antagonist activity, calcium mobilization)
Type: cell-based
Settings: FLIPR assay as described in Example A
pIC50: −log10 of the molar value.
Please use TRUE whenever pIC50 is not below 8, and FALSE whenever it is.

Here's what some known entries look like.
| COMPOUND STRUCTURE STRING | LABEL CLASS |
| --- | --- |
| COc1nn2cc(-c3cc4c(OCc5cccc(OCc6ccccc6)c5)cccc4o3)nc2s1 | TRUE |
| CSc1nn2cc(-c3nc4c(O)cccc4o3)nc2s1 | FALSE |
| COc1cc(OCc2cccc(OCc3cccc(OC)c3OC)c2)c2cc(-c3cn4nc(OC)sc4n3)oc2c1 | TRUE |
| CSc1nn2cc(-c3cc4c(OCc5cccnc5)cccc4o3)nc2s1 | FALSE |

Proceed to the following item.
(Q) Please tell me: is the molecule CCc1nn2cc(-c3nc4ccc(OCC5CC5)cc4o3)nc2s1 at or over 8 in terms of pIC50?
(A) FALSE

###

Target: PAR4 (Homo sapiens (Human), UniProt Q96RI0)
Experiment: FLIPR assay in PAR4-expressing HEK293 cells (PAR4 antagonist activity, calcium mobilization)
Format: cell-based
Settings: FLIPR assay as described in Example A
RECORDED METRIC: IC50 (nM)
Express it in nM; write the number only.

| MOLECULE | STUDY TARGET | RECORDED METRIC | TEST RESULT |
| --- | --- | --- | --- |
| CC(F)(F)c1nn2cc(-c3nc4ccccc4o3)nc2s1 | PAR4 (Homo sapiens (Human), UniProt Q96RI0) | IC50 | 2340 |
| COc1nn2cc(-c3nc4cccc(F)c4o3)nc2s1 | PAR4 (Homo sapiens (Human), UniProt Q96RI0) | IC50 | 91.3 |
| COc1cc(OCc2cccc(OCc3ccc(F)c(C(F)(F)F)c3)c2)c2cc(-c3cn4nc(OC)sc4n3)oc2c1 | PAR4 (Homo sapiens (Human), UniProt Q96RI0) | IC50 | 8.88 |
| CSc1nn2cc(-c3nc4c(OCc5ccccn5)cccc4o3)nc2s1 | PAR4 (Homo sapiens (Human), UniProt Q96RI0) | IC50 | 139 |
| COc1ccc2c(C)c(-c3cn4nc(SC)sc4n3)oc2c1OC | PAR4 (Homo sapiens (Human), UniProt Q96RI0) | IC50 | 2.81 |

(Q) Give recorded IC50. COc1ccc2oc(-c3cn4nc(OC)sc4n3)cc2c1
(A) 222

(Q) Give recorded IC50. CSc1nn2cc(-c3nc4c(OC[C@H]5CCCN5C(=O)[C@H](NC(=O)c5cccs5)c5ccccc5)cccc4o3)nc2s1
(A) 897

(Q) Give recorded IC50. CSc1nn2cc(-c3nc4c(OCCN5CCOCC5)cccc4o3)nc2s1
(A) 1150

(Q) Give recorded IC50. CC(F)(F)c1nn2cc(-c3cc4c(F)cccc4o3)nc2s1
(A) 180

(Q) Give recorded IC50. Cc1ccc2cc(-c3cn4nc(C(C)(F)F)sc4n3)oc2c1
(A) 15.7

###

Target: PAR4 (Homo sapiens (Human), UniProt Q96RI0)
Assay: FLIPR assay in PAR4-expressing HEK293 cells (PAR4 antagonist activity, calcium mobilization)
Assay type: cell-based
Details: FLIPR assay as described in Example A
RECORDED METRIC: IC50 (nM)
Express it in nM; write the number only.

| COMPOUND STRUCTURE STRING | STUDY TARGET | UNITS | TEST RESULT |
| --- | --- | --- | --- |
| COc1cc(OCc2cccc(OCc3ccc(C)cc3C)c2)c2cc(-c3cn4nc(OC)sc4n3)oc2c1 | PAR4 (Homo sapiens (Human), UniProt Q96RI0) | nM | 2.13 |
| CSc1nn2cc(-c3nc4ccc(OC(C)C)cc4o3)nc2s1 | PAR4 (Homo sapiens (Human), UniProt Q96RI0) | nM | 79.9 |

Here is the next item to consider.
(Q) Give recorded IC50. CCc1nn2cc(-c3nc4ccc(OCc5ccc(Cl)cc5)cc4o3)nc2s1
(A) 1010
